- EXPERIMENTAL SYSTEM: T1, human B7-H4 extracellular domain (human, UniProt Q7Z7D3 29-258)
- T1 construct: Soluble ECD used as SPR analyte; also called huB7-H4 ECD; huB7-H4
- T1 sequence: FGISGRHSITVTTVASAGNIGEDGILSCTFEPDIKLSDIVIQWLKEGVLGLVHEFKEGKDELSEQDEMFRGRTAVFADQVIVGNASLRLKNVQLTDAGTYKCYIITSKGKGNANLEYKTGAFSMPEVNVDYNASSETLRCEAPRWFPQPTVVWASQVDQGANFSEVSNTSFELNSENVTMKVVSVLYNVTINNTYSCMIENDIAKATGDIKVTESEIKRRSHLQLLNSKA
- EXPERIMENT NOTES: SPR 37 C; IgG1 on anti-hFc chip, ECD analyte;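 further: antibodies captured, then B7-H4 ECD injected at five 3-fold dilutions from 300 nM, 65 s association and 600 s dissociation, fitted to a 1:1 Langmuir model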
MEASURED METRIC: koff (s⁻¹)
Express it in s⁻¹; write the number only.

Worked examples, 2 binders total:
{"columns": ["BINDER", "MEASURED METRIC", "VALUE REPORTED"],
 "data": [
  ["B7-H4 antibody 1083 (antibody, human IgG1, kappa, V domains shown, IgG1 mAb format) VH: EVQLVESGGGLVQPGGSLRLSCAASGGSFSGYYWNWIRQPPGKGLEWIGEINHSGSATYNPSLKSRVTISVDTAKNSFYLQMNSLRAEDTAVYYCARGLYNWNVDHWGQGTLVTVSS VL: DIQMTQSPSSLSASVGDRVTITCRASQGIRNDLGWYQQKPGKAPKRLIYAASSLQSGVPSRFSGSGSGTDFTLTISSLQPEDFATYYCLQHNAYPRTFGGGTKVEIKR", "koff", 0.0086],
  ["B7-H4 antibody 1116 (antibody, human IgG1, kappa, V domains shown, IgG1 mAb format) VH: EVQLLESGGGLVQPGGSLRLSCAASGFTFSSYAMSWVRQAPGKGLEWVSAISGGGGSTYYADSVKGRFTISRDNSKNTLYLQMNSLRAEDTAVYYCARDIQWYGESTLFDYWGQGTLVTVSS VL: DIQMTQSPSSLSASVGDRVTITCRASQSTRSWLAWHQQKPGKAPKLLIYKASSLESGVPSRFSGSGSGTDFTLTISSLQPEDFATYYCQQYGSYSRTFGQGTKVEIKR", "koff", 0.00126]
]}

# input for lookup
For this binder ( B7-H4 antibody 1115 (antibody, human IgG1, kappa, V domains shown, IgG1 mAb format) VH: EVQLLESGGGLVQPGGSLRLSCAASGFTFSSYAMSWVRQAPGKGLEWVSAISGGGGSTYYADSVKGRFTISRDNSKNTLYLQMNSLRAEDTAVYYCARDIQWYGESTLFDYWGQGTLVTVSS VL: DIQMTQSPSSLSASVGDRVTITCRASQSTRSWLAWYQQKPGKAPKLLIYKASSLESGVPSRFSGSGSGTDFTLTISSLQPEDFATYYCQQYGSYSRTFGQGTKVEIKR ), measured koff is 0.00116
